tested on: 171881-019-R-J1-PDC complex spheroid viability; assay: Anticancer human tumor 171881-019-R-J1-PDC patient-derived invasive breast carcinoma cell line growth inhibition; conditions: second compound 10 µM; first compound 0.00316 µM; stronger effect = lower value
# key: entry, value: viability, T/C

In: Tell me measured viability, T/C for Nc1ncn(C2CC(O)C(CO)O2)c(=O)n1 (configuration not stated) + NC1CC1c1ccc(-c2cccc(O)c2)cc1 please.
Out: 82.4%

In: Tell me measured viability, T/C for CC1COCCN1c1cc(-c2ccnn2C)c2ccnc(-c3ccn[nH]3)c2n1 (configuration not stated) + NC1CCC(NC2CC2c2ccccc2)CC1 please.
Out: 70%

====

system: 171881-019-R-J1-PDC complex spheroid viability; test: Anticancer human tumor 171881-019-R-J1-PDC cell line growth inhibition; conditions: second compound 0.316 µM; first compound 0.00316 µM; active means viability on the fitted dose curve at most 10% of control; inactive means the rest;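 also: spheroids exposed to agents for 7 days after 3 days growth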
Respond using exactly one of the listed classes: yes (1) (active), no (0) (inactive)

In: Recorded test call requested for CC(C)CC(NC(=O)CNC(=O)c1cc(Cl)ccc1Cl)B1OC(=O)CC(CC(=O)O)(C(=O)O)O1 (stereo unspecified) + NC1CCC(NC2CC2c2ccccc2)CC1
Out: no (0)

In: Recorded test call requested for Cn1ncnc1C1c2n[nH]c(=O)c3cc(F)cc(c23)NC1c1ccc(F)cc1 (stereo unspecified) + NC1CCC(NC2CC2c2ccccc2)CC1
Out: no (0)

More entries:
In: Recorded test call requested for CC(C)CC(NC(=O)C(Cc1ccccc1)NC(=O)c1cnccn1)B(O)O (stereo unspecified) + NC1CCC(NC2CC2c2ccccc2)CC1
Out: yes (1)

In: Recorded test call requested for CC[C@@]1(O)C(=O)OCc2c1cc1n(c2=O)Cc2cc3c(CN(C)C)c(O)ccc3nc2-1 + NC1CCC(NC2CC2c2ccccc2)CC1
Out: no (0)

====

tested on: 171881-019-R-J1-PDC complex spheroid viability; assay: Anticancer human tumor 171881-019-R-J1-PDC cell line growth inhibition; details: second compound 0.316 µM; first compound 0.0316 µM; stronger effect = lower value;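 also: spheroids exposed to agents for 7 days after 3 days growth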
# key: entry, value: viability, T/C
Report the value in % with no unit label.

Recorded viability, T/C, per entry:
In: Tell me measured viability, T/C for COc1ccc([C@@H](O)c2cc(-c3ncnc4cc(N5CCOCC5)ccc34)c(F)cc2Cl)nn1 + NC1CC1c1ccc(-c2cccc(O)c2)cc1 please.
Out: 103

In: Tell me measured viability, T/C for CC(C)CC(NC(=O)CNC(=O)c1cc(Cl)ccc1Cl)B1OC(=O)CC(CC(=O)O)(C(=O)O)O1 (stereo unspecified) + NC1CCC(NC2CC2c2ccccc2)CC1 please.
Out: 3.3

In: Tell me measured viability, T/C for Nc1ncn(C2CC(O)C(CO)O2)c(=O)n1 (stereo unspecified) + NC1CCC(NC2CC2c2ccccc2)CC1 please.
Out: 92.9

In: Tell me measured viability, T/C for O=C(c1cc(Cc2n[nH]c(=O)c3ccccc23)ccc1F)N1CCN(C(=O)C2CC2)CC1 + NC1CC1c1ccc(-c2cccc(O)c2)cc1 please.
Out: 101

In: Tell me measured viability, T/C for CC(C)c1c(-c2ccccc2)nc2c(C#N)c[nH]n2c1=O + NC1CCC(NC2CC2c2ccccc2)CC1 please.
Out: 90.7

Now look at this one.
In: Tell me measured viability, T/C for O=C(c1cc(Cc2n[nH]c(=O)c3ccccc23)ccc1F)N1CCN(C(=O)C2CC2)CC1 + NC1CCC(NC2CC2c2ccccc2)CC1 please.
Out: 91.7
